Provenance of the data: patent US20100047245A1

- EXPERIMENTAL_SYSTEM: recombinant purified human IL-12 p70 (human) (UniProt P29459)
- Sequence (chain, as listed by the source, form in doubt, chain 1 of 2): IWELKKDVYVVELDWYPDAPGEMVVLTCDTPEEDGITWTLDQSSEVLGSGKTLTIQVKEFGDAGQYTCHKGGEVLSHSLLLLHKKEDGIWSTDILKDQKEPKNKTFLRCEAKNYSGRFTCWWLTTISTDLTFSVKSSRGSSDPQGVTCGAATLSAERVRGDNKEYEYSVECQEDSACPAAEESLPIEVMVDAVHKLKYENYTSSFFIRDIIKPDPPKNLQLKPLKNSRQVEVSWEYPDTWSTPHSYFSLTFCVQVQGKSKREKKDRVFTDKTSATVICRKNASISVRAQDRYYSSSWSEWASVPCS
- Sequence (P29459 23-219, form in doubt, chain 2 of 2): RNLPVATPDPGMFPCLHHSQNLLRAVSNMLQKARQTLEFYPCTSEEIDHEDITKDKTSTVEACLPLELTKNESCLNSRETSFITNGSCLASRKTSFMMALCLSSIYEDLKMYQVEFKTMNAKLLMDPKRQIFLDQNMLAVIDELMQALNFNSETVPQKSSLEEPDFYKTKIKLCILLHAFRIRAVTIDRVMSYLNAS
- PROCEDURE_TEXT: SPR (Biacore) per Example 1.1.B; antigen not restated, taken as human IL-12 p70
PROPERTY_NAME: pKd
Note on pKd: it is the negative log10 of concentration, concentration in mol/L.

[ask] // lookup pKd for 8E1.5 (antibody, IgG1, V domains shown) VH: EVQLVESGGGLVQPGGSLRLSCAASGFTFSDYGMVWVRQAPGKGLEWVASISSGSSNIYYADTVKGRFTISRDNAKNTLYLQMNSLRAEDTAVYYCARNPYWGQGTLVTVSS VL: DIQMTQSPSSLSASVGDRVTITCKASQNVGTNVAWYQQKPGKAPKGLIYSASHRYSGVPDRFSGSGSGTDFTLTISSLQPEDFATYYCQQYNSYPLTFGGGTKVEIKR
[reply] 9.12

[ask] Next binder up: 8E1.4 (antibody, IgG1, V domains shown) VH: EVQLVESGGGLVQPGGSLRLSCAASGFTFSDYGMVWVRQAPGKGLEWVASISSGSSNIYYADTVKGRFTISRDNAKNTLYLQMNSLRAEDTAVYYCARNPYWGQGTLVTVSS VL: DIQMTQSPSSLSASVGDRVTITCKASQNVGTNVAWYQQKPGKAPKGLIYSASHRYSGVPSRFSGSGSGTDFTLTISSLQPEDFATYYCQQYNSYPLTFGGGTKVEIKR
[reply] 8.89
